# Measured Target: UniProt P56817
# Assay Text: Inhibition of recombinant human BACE1 using Rh-EVNLDAEFK as substrate after 60 mins by fluorescence quenching assay
pIC50: −log10 of the molar value.
Parameter Measured: pIC50

// sample COc1ccc2ccc(=O)oc2c1CC=C(C)C [OSTHOLE] , its pIC50 was < 3.30

// sample O=c1ccc2ccc3occc3c2o1 [ANGELICIN] , its pIC50 was < 3.30

// sample O=c1ccc2c(O)c3ccoc3cc2o1 [BERGAPTOL] , its pIC50 was < 3.30

// sample CC(C)=CC(=O)O[C@H]1Cc2cc3ccc(=O)oc3cc2OC1(C)C [DECURSIN] , its pIC50 was < 3.30

// sample "COc1c2ccoc2c(O)c2oc(=O)ccc12" , its pIC50 was < 3.30

// sample CC(C)(O)[C@@H]1Cc2c(ccc3ccc(=O)oc23)O1 [COLUMBIANETIN] , its pIC50 was < 3.30

// sample CC1(C)CCc2cc3ccc(=O)oc3cc2O1 [DIHYDROXANTHYLETIN] , its pIC50 was < 3.30

// sample COc1c2ccoc2c(OC[C@@H](O)C(C)(C)O)c2oc(=O)ccc12 [BYAKANGELICIN] , its pIC50 was 3.66

// sample "COc1c2occc2c(OC/C=C(\C)CCC=C(C)C)c2ccc(=O)oc12" , its pIC50 was 5.00

// sample "CC(C)=CCOc1c2ccoc2c(OCC=C(C)C)c2oc(=O)ccc12" , its pIC50 was < 3.30

// sample CC(C)=CCC/C(C)=C/COc1ccc2ccc(=O)oc2c1 [AURAPTENE] , its pIC50 was 3.46

// sample "COc1c2ccoc2c(OC/C=C(\C)CCC=C(C)C)c2oc(=O)ccc12" , its pIC50 was 4.95

// sample CC1(C)C=Cc2c(ccc3ccc(=O)oc23)O1 [SESALIN] , its pIC50 was < 3.30

// sample CC(C)=CCC/C(C)=C/COc1c2ccoc2cc2oc(=O)ccc12 [BERGAMOTTIN] , its pIC50 was 4.49

// sample COc1c2occc2c(OCC=C(C)C)c2ccc(=O)oc12 [KINIDILIN] , its pIC50 was 3.46

// sample "O=c1ccc2c(O)c3ccoc3c(O)c2o1" , its pIC50 was < 3.30

// sample "CC(C)=CCC/C(C)=C/COc1c2ccoc2c(O)c2oc(=O)ccc12" , its pIC50 was < 3.30

// sample CC(C)=CCOc1ccc2ccc(=O)oc2c1 [7-PRENYLOXYCOUMARIN] , its pIC50 was < 3.30

// sample CC1(C)C=Cc2cc3ccc(=O)oc3cc2O1 [XANTHYLETIN] , its pIC50 was < 3.30

// sample CC(C)(O)[C@H](O)COc1c2occc2cc2ccc(=O)oc12 [HERACLENOL] , its pIC50 was < 3.30

// sample CC(C)=CCOc1c2occc2cc2ccc(=O)oc12 [PENTOSALEN] , its pIC50 was 4.04

// sample "CC(C)=CCOc1c2ccoc2c(O)c2oc(=O)ccc12" , its pIC50 was < 3.30

----------
Would you kindly list pIC50 for each of these compounds?
# Measured Target: Beta-secretase 1 (Homo sapiens)
# Sequence (P56817 whole entry): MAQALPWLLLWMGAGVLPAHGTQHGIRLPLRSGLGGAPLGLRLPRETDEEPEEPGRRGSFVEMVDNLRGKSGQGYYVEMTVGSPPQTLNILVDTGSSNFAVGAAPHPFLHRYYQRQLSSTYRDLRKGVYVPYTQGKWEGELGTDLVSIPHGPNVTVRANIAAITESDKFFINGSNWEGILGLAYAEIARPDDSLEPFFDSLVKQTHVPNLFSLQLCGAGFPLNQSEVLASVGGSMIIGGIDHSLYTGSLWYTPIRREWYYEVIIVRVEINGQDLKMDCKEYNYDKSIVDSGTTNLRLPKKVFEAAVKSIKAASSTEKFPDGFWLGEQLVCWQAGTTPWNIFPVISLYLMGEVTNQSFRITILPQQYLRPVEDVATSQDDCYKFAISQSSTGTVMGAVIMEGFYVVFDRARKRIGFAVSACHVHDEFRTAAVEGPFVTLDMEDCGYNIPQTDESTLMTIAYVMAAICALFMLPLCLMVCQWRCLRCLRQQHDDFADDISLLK
# Assay Text: Inhibition of recombinant human BACE1 using Rh-EVNLDAEFK as substrate after 60 mins by fluorescence quenching assay
pIC50: −log10 of the molar value.

// sample "CC(C)=CCc1cc2ccc(=O)oc2cc1O" , its pIC50 was 3.38

// sample "CC1(C)Oc2cc3oc(=O)ccc3cc2C[C@@H]1O" , its pIC50 was < 3.30

// sample "CC(C)=CCC/C(C)=C/COc1c2occc2cc2ccc(=O)oc12" , its pIC50 was 4.69

// sample "CC(C)=CCc1c(O)ccc2ccc(=O)oc12" , its pIC50 was < 3.30

// sample "COc1c2ccoc2cc2oc(=O)ccc12" , its pIC50 was < 3.30

// sample "CC1(C)O[C@H]1COc1c2ccoc2cc2oc(=O)ccc12" , its pIC50 was 3.44

// sample "O=c1ccc2ccccc2o1" , its pIC50 was < 3.30

// sample "CC1(C)O[C@@H]1COc1c2occc2cc2ccc(=O)oc12" , its pIC50 was 3.35

// sample "COc1c2ccoc2c(OC)c2oc(=O)ccc12" , its pIC50 was < 3.30

// sample "COc1cc2oc(=O)ccc2cc1CC=C(C)C" , its pIC50 was < 3.30

// sample "O=c1ccc2cc3ccoc3c(O)c2o1" , its pIC50 was < 3.30
